# TEST SYSTEM: UniProtKB Q9Y4K0
# PROTOCOL TEXT: Inhibition of human LOXL2 expressed in CHO cells incubated for 2 hrs followed by 1,5-Diaminopentane addition by Amplex Red fluorescence based assay
Parameter IC50: see the listing below.

TEST SMILES	IC50
COC(=O)c1cncc(-c2ccc3[nH]c(CN)cc3c2)c1	< 300 nM
NCc1cc(=O)c2cc(Br)ccc2s1	< 300 nM
COc1ccc2[nH]c(CN)cc2c1	300 to 1000 nM
C#Cc1ccc2cc(CN)[nH]c(=O)c2c1	< 300 nM
NCc1nc2cc(Cl)ccc2s1	300 to 1000 nM
NCc1cc(=O)[nH]c2ccccc12	> 1000 nM
NCc1cc2cc(Br)ccc2[nH]1	< 300 nM
NCc1cc2cc(Br)ccc2s1	< 300 nM
NCc1cc2ccc(C#Cc3ccccc3)cc2c(=O)[nH]1	< 300 nM
NCc1cc(O)n2nccc2n1	300 to 1000 nM
Cn1cnc2ccc(-c3ccc4[nH]c(CN)cc4c3)cc21	< 300 nM
NCCc1nc2cccc(Cl)c2o1	< 300 nM
NCc1cc2cc(Cl)ccc2[nH]1	300 to 1000 nM
NCc1cc2ccccc2o1	300 to 1000 nM
NCCc1cc2ccccc2[nH]1	> 1000 nM

----------
# TEST SYSTEM: Lysyl oxidase homolog 2 (Homo sapiens, UniProt Q9Y4K0)
# Sequence (Q9Y4K0 whole entry): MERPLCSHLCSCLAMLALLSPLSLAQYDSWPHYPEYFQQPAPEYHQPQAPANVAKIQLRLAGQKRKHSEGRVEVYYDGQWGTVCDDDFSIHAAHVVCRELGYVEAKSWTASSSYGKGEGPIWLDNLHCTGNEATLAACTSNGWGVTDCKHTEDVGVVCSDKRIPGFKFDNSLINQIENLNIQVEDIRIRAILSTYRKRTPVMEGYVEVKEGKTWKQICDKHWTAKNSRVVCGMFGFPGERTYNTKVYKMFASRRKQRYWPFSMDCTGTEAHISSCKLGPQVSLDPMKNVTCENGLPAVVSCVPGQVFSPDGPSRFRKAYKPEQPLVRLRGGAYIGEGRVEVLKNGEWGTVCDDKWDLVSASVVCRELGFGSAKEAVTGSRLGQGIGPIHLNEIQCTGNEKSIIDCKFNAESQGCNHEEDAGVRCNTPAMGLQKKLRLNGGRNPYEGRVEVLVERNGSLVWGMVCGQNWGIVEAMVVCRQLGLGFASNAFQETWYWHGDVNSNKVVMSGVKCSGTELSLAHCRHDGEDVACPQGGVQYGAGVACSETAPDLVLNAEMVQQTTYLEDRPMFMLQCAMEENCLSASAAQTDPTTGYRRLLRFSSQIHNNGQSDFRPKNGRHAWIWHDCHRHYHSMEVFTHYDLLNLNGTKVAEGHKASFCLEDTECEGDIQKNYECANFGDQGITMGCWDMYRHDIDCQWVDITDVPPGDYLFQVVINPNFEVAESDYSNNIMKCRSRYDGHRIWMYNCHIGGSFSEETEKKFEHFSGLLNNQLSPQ
# PROTOCOL TEXT: Inhibition of human LOXL2 expressed in CHO cells incubated for 2 hrs followed by 1,5-Diaminopentane addition by Amplex Red fluorescence based assay
pIC50: −log10 of the molar value.

MOLECULE	pIC50
NCCc1cc2ccccc2o1	< 6.00
NCc1cc2ccc(-c3ccc(C(=O)Nc4ccccc4)nc3)cc2s1	> 6.52
CC(CN)c1nc2ccccc2s1 (racemic)	6.00 to 6.52
NCc1nc2ccccc2[nH]1	> 6.52
NCc1cc2cc(-c3cnc4ccccc4c3)ccc2[nH]1	> 6.52
NCc1cc2cc(-c3cccnc3)ccc2s1	> 6.52
NCc1cc(Oc2cccc(C(=O)Nc3ccccc3)c2)n2nccc2n1	6.00 to 6.52
NCCc1nc2cc(Cl)ccc2o1	> 6.52
NCc1cc(Nc2cccc(C(=O)Nc3ccccc3)c2)n2ccnc2n1	> 6.52
NCc1cc2ccccc2c(=O)[nH]1	6.00 to 6.52
NCc1cc2ccc(-c3cncc(C(=O)Nc4ccccc4)c3)cc2s1	> 6.52
NCc1cc2cc(C3CC3)ccc2s1	> 6.52
NCCc1nc(-c2ccccc2)cs1	6.00 to 6.52
NCc1cc2c(cn1)ncn2Cc1cccc(C(=O)Nc2ccccc2)c1	< 6.00
NCc1cc2ccc(-c3cccnc3)cc2s1	> 6.52
NCc1cc2ccccc2s1	6.00 to 6.52
NCc1sc2ccccc2c1Cl	6.00 to 6.52

----------
# TEST SYSTEM: Lysyl oxidase homolog 2 (Homo sapiens)
# PROTOCOL TEXT: Inhibition of human LOXL2 expressed in CHO cells incubated for 2 hrs followed by 1,5-Diaminopentane addition by Amplex Red fluorescence based assay
Parameter IC50: see the listing below.
ATTRIBUTE MEASURED: IC50

COMPOUND	REPORTED MEASUREMENT
NCc1ccnc(Oc2cccc(C(=O)Nc3ccccc3)c2)n1	300 to 1000 nM
NCc1nc2ccccc2s1	< 300 nM
NCc1cc2cc(F)ccc2[nH]1	> 1000 nM
NCCc1nc2ccccc2[nH]1	> 1000 nM
NCc1cc2cc(-c3ccc(F)cc3)ccc2[nH]1	< 300 nM
NCCc1nc2cc(Cl)ccc2[nH]1	> 1000 nM
NCc1cc2c(cn1)ncn2-c1cccc(C(=O)Nc2ccccc2)c1	< 300 nM
NCc1cc2cc(-c3ccc(OCc4ccccc4)nc3)ccc2[nH]1	300 to 1000 nM
NCc1cccnn1	< 300 nM
NCc1cc2ccc(-c3cnc4ccccc4c3)cc2c(=O)[nH]1	< 300 nM
NCc1cc2ccc(-c3ccc(F)cc3)cc2c(=O)[nH]1	< 300 nM
NCc1cc2cc(-c3cncc4ccccc34)ccc2[nH]1	< 300 nM
CC(C)(C)c1ccc2sc(CN)cc2c1	< 300 nM
NCc1cc2cc(-c3ccc(Oc4ccccc4)nc3)ccc2[nH]1	< 300 nM
NCc1ccc2ncccc2c1	> 1000 nM
NCc1ccnnc1	300 to 1000 nM
NCc1cc2cc(Br)ccc2o1	> 1000 nM
NCc1cc2cc(F)ccc2s1	< 300 nM
NCc1nc2cc(Br)cnc2[nH]1	< 300 nM
NCc1cc2cc(-c3ccc4nccn4c3)ccc2[nH]1	< 300 nM
Cc1c(CN)oc2ccc(F)cc12	> 1000 nM
NCc1cc(Oc2cccc(C(=O)Nc3ccccc3)c2)n2ccnc2n1	< 300 nM
CC(C)(C)c1ccc2oc(CN)nc2c1	< 300 nM
NCCc1nn2cnnc2s1	> 1000 nM
NCc1nc2cc3ccccc3cc2[nH]1	< 300 nM
NCc1ccc2[nH]cnc2c1	> 1000 nM
NCc1nc2ccccc2o1	> 1000 nM
NCCc1nc2ccccc2o1	300 to 1000 nM
NCc1cc2ccc(-c3ccccc3)cc2c(=O)[nH]1	< 300 nM
NCc1nc2ncccc2[nH]1	< 300 nM
NCc1cc2cc(I)ccc2[nH]1	< 300 nM
NCC1=CC(=O)c2ccccc2C1=O	< 300 nM
NCCc1cc2ccccc2s1	> 1000 nM
NCc1ccc2[nH]ccc2n1	> 1000 nM
NCc1cc2ccncc2[nH]1	< 300 nM
NCc1cc2ccc(-n3cc(Br)cn3)cc2c(=O)[nH]1	< 300 nM
NCc1cnccn1	< 300 nM
NCc1cc2ccc(Br)cc2s1	< 300 nM
NCCc1nc2ccccc2s1	< 300 nM
COc1ncccc1-c1ccc2[nH]c(CN)cc2c1	300 to 1000 nM
Cc1cc(Br)cc2cc(CN)oc12	< 300 nM
NCc1nc2cc(Cl)ccc2[nH]1	< 300 nM
Cc1c(F)ccc2cc(CN)[nH]c12	> 1000 nM
NCCc1nc2cc(F)ccc2s1	< 300 nM
Cc1ccc2[nH]c(CN)cc2c1	300 to 1000 nM
NCc1cc2ccccc2[nH]1 [2-INDOLYLMETHANAMINE]	300 to 1000 nM
NCc1cc2cc(-c3cncc(O)c3)ccc2[nH]1	300 to 1000 nM
NCC(O)c1cc2ccccc2s1 (racemic)	> 1000 nM
NCc1cc2cc(-c3cccnc3)ccc2[nH]1	< 300 nM
NCCc1nc2cc(Cl)ccc2s1	< 300 nM
COc1ccc(-c2ccc3[nH]c(CN)cc3c2)cn1	300 to 1000 nM
NCc1cnnc(Oc2cccc(C(=O)Nc3ccccc3)c2)c1	< 300 nM
NCc1cc2ccc(-c3cncc(C(=O)NCc4ccccc4)c3)cc2s1	< 300 nM
NCc1cc2occc2s1	> 1000 nM
NCCc1nc(-c2ccncc2)cs1	300 to 1000 nM
Cn1cc(-c2ccc3[nH]c(CN)cc3c2)cn1	300 to 1000 nM
Cn1c(CN)cc2ccccc21	> 1000 nM
NCc1cc2ccc(Br)cc2c(=O)[nH]1	< 300 nM
NCCc1nc2ccc(F)cc2[nH]1	> 1000 nM
COc1ccc2cc(CN)[nH]c(=O)c2c1	< 300 nM
NCc1cc2ncccc2[nH]1	< 300 nM
